pIC50: −log10 of the molar value.
Assay read-out pIC50 on Estrogen receptor (Homo sapiens); records merged from the literature.
Parameter: pIC50

- Compound: "Cc1c(O)ccc2c1OC(C)c1c-2ccc(O)c1C (stereo not given)"
  pIC50: 6.47

P = O=C(c1ccc(N2CCN(C(=O)c3ccccc3)CC2)cc1)c1c(-c2ccc(O)cc2)sc2cc(O)ccc12
Q = Oc1ccc(-n2c(-c3ccccc3)nc3ccccc32)cc1
// query Which has the smaller recorded pIC50, P or Q ? Pick one and reply with its label.
// result Q

---

Target: UniProt P03372
Sequence (P03372 whole entry): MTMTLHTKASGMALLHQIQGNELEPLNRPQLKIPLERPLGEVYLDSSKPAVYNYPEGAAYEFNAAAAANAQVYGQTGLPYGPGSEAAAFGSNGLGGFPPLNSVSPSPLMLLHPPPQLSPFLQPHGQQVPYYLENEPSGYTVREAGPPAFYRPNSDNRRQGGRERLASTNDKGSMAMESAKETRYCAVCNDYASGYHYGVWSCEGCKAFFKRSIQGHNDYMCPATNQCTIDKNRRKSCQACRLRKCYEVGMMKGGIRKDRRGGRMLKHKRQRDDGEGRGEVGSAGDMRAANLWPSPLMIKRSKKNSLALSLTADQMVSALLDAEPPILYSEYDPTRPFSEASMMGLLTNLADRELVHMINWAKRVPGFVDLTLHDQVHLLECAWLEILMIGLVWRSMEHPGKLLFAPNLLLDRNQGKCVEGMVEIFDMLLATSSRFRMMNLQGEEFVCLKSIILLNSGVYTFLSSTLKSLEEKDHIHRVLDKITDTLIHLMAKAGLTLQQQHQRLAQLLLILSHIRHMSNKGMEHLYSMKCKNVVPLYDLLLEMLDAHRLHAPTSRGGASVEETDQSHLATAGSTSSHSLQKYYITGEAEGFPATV
pIC50: −log10 of the molar value.
Assay read-out pIC50 on UniProt P03372; records merged from the literature.
Parameter: pIC50

- Compound: "CCCc1cc(O)cc2c1C(=O)[C@@H](c1ccc(O)cc1)[C@@H](c1ccc(OCCN3CCCCC3)cc1)O2"
  Data value: 6.19

1 = O=C1c2ccc(O)cc2C(=O)N1c1cccc(O)c1
2 = Oc1ccc2c(c1)S[C@H](Cc1ccccc1)[C@H](c1ccc(OCCN3CCCCC3)cc1)O2
3 = CCC12CCC(=O)C(C)=C1c1ccc3[nH]nc(Br)c3c1C2 (racemic)
// query Which order do these items take when sorted by rising pIC50? List them. The labels, placed in the requested order, form the answer.
// result 3, 1, 2
